system: S. pneumoniae UNT-039, MP-627, TP1517 (mefA)
readout.type: MIC (µg/mL)
Give bare numbers, in µg/mL.

INSERT INTO measurements (compound, measure_unit, endpoint_result) VALUES
  ('CSC1O[C@H]([C@H](NC(=O)[C@H]2NC[C@@H]3C[C@H]4OC(C)(C)O[C@H]4CO[C@H]32)[C@H](C)Cl)C(O)[C@@H](O)[C@H]1O (some centres unmarked)', 'µg/mL', 2);

// next entry
Report MIC for CSC1O[C@H]([C@H](NC(=O)[C@H]2NC[C@@H]3C[C@@H](O)[C@@H](O)CO[C@H]32)[C@H](C)Cl)C(O)[C@@H](O)[C@H]1O (some centres unmarked) 32
